Property: IC50; scope: individual compounds
Molecular target: human PD-1 / PD-L1-Ig binding on Jurkat cell line over-expressing human PD-1 (Jurkat-PD-1) (Homo sapiens, UniProt Q15116)
Construct: expressed in transfected cells; host or cells: Jurkat
Sequence (Q15116 25-288): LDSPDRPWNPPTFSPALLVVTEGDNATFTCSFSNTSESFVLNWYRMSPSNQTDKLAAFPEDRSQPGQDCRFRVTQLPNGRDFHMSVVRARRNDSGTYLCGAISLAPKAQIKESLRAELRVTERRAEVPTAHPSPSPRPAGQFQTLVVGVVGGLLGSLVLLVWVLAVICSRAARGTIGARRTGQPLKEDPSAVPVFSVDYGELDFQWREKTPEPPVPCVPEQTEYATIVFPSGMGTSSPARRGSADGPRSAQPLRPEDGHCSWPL
Assay: Jurkat-PD-1 Cell Binding High-Content Screening Assay (CBA)
Format: cell-based
Conditions: Jurkat-PD-1 cells, PE-labeled PD-L1-Ig 20 nM final; read-out: Jurkat HPD1_PDL1 IC50
Description: Example 3. Jurkat-PD-1 Cell Binding High-Content Screening Assay (CBA) Jurkat-PD-1 Cell Binding High-Content Screening Assay (CBA). Phycoerythrin (PE) was covalently linked to the Ig epitope tag of human PD-L1-Ig and fluorescently-labeled PD-L1-Ig was used for binding studies with a Jurkat cell line over-expressing human PD-1 (Jurkat-PD-1). Briefly, 8×10^3 Jurkat-hPD-1 cells were seeded into 384 well plates in 20 μl of DMEM supplemented with 10% fetal calf serum. […]
Where a SMILES comes first, the peptide text is derived from it. Bridges are numbered along the chain shown (N, C = ends). [ ]: non-standard residue; d: D form. Bip = N[C@@H](Cc1ccc(-c2ccccc2)cc1)C(=O)O; Orn = NCCC[C@H](N)C(=O)O; Dab = NCC[C@H](N)C(=O)O
experimental.endpoint: IC50

1) CCCC[C@H]1NC(=O)[C@H](CCCN)NC(=O)[C@H](CCC(=O)O)NC(=O)[C@H](Cc2ccc(-c3ccccc3)cc2)NC(=O)[C@H](C(C)C)NC(=O)[C@H](Cc2c[nH]c3ccccc23)NC(=O)[C@H](CC(=O)O)NC(=O)[C@H](Cc2ccc(OCC(=O)O)cc2)NC(=O)[C@H](CN)NC(=O)CSC[C@@H](C(=O)N[C@@H](C)C(N)=O)NC(=O)[C@H]([C@@H](C)O)NC(=O)[C@H](C(C)C)NC(=O)[C@H](CC2CCCCC2)NC(=O)[C@H](CCN)NC1=O | 11.9 nM
2) CC(C)C[C@@H]1NC(=O)[C@H](CCN)NC(=O)[C@@H](CC(C)C)NC(=O)[C@@H](C)NC(=O)[C@H](C(C)C)NC(=O)[C@H](Cc2ccc(-c3ccccc3)cc2)NC(=O)[C@H](C(C)C)NC(=O)[C@H](Cc2c[nH]c3ccccc23)NC(=O)[C@H](CC(=O)O)NC(=O)[C@H](Cc2ccc(O)cc2)NC(=O)[C@H](CC(N)=O)NC(=O)CSC[C@@H](C(=O)N[C@@H](C)C(N)=O)NC(=O)[C@H]([C@@H](C)O)NC(=O)[C@H](C(C)C)NC1=O [Compound 1026] ({CH2CO}-NYDWV[Bip]V[dA][dL][Dab]LVTCA-NH2; thioether N-14) | 10.8 nM
3) CC(C)C[C@@H]1NC(=O)[C@H](Cc2c[nH]c3ccccc23)NC(=O)[C@H](CC(=O)O)NC(=O)[C@H](Cc2ccc(O)cc2)NC(=O)[C@H](Cc2ccccc2)NC(=O)CSC[C@@H](C(=O)N[C@@H](C)C(N)=O)NC(=O)[C@H]([C@@H](C)O)NC(=O)[C@H](C(C)C)NC(=O)[C@H](CC(C)C)NC(=O)[C@H](CC(N)=O)NC(=O)[C@@H](CC(C)C)NC(=O)[C@H](CCCN)NC(=O)[C@H](C(C)C)NC(=O)[C@H](Cc2ccc(-c3ccccc3)cc2)NC1=O [Compound 1066] ({CH2CO}-FYDWL[Bip]V[Orn][dL]NLVTCA-NH2; thioether N-14) | 42.2 nM
4) CC(C)C[C@H]1NC(=O)[C@H](CCCN)NC(=O)[C@H](CCCNC(N)=O)NC(=O)[C@H](Cc2ccc(-c3ccccc3)cc2)NC(=O)[C@H](C(C)C)NC(=O)[C@H](Cc2c[nH]c3ccccc23)NC(=O)[C@H](CC(=O)O)NC(=O)[C@H](Cc2ccc(O)c([N+](=O)[O-])c2)NC(=O)[C@H](CN)NC(=O)CSC[C@@H](C(=O)N[C@@H](C)C(N)=O)NC(=O)[C@H]([C@@H](C)O)NC(=O)[C@H](C(C)C)NC(=O)[C@H](CC2CCCCC2)NC(=O)[C@H](CCN)NC1=O | 14.9 nM

Where do the numbers come from? From patent US20250163104A1.
